Tested on: A549
Assay: relative viability (normalised to negative control = 1, bortezomib = 0) (fraction); higher = less cytotoxic
Details: inflammatory serum-free RHB-A with cytokines + LPS; 5 d + 24 h CellTiter-Blue; compound 30 nM; GSK126 pretreatment: 5 uM GSK126
endpoint-label: relative viability
Note: the reply should be a number with no unit written.

compound	relative viability
Cn1cc(C2=C(c3ccc(Cl)cc3Cl)C(=O)NC2=O)c2ccccc21	0.787
Nc1ncnc2c1c(-c1cnc3[nH]ccc3c1)nn2C1CCCC1	0.767
COc1cc2nccc(Oc3ccc(NC(=O)C4(C(=O)Nc5ccc(F)cc5)CC4)cc3)c2cc1OC [XL184; Cabozantinib]	0.903
CC(C)n1nc(-c2cc3cc(O)ccc3[nH]2)c2c(N)ncnc21	0.686
CN(C)c1nc(N(C)C)nc(N(C)C)n1 [Altretamine]	0.861
S=c1[nH]cnc2nc[nH]c12 [Mercaptopurine]	0.949
CC(=O)c1c(C)c2cnc(Nc3ccc(N4CCNCC4)cn3)nc2n(C2CCCC2)c1=O	0.89
O=c1cc(-c2cccc3c2Sc2ccccc2S3)oc(N2CCOCC2)c1	0.781
CNC(=O)CN1CCC(Oc2cc3c(Nc4cccc(Cl)c4F)ncnc3cc2OC)CC1	0.536
COc1ccc(-c2ccc3c(N4CCOCC4)nc(N4C[C@@H](C)O[C@@H](C)C4)nc3n2)cc1CO	0.708

Request: // query relative viability value for entry O=C1CCC(N2C(=O)c3ccccc3C2=O)C(=O)N1 (stereo not given)
Result: 0.862

Request: // query relative viability value for entry S=C(NCc1ccc2c(c1)OCO2)N1CCN(c2ncnc3c2oc2ccccc23)CC1 [Amuvatinib (MP-470); MP-470]
Result: 0.861

Request: // query relative viability value for entry Cc1cc(Nc2nc(N[C@@H](C)c3ncc(F)cn3)ncc2Cl)[nH]n1
Result: 0.912

Request: // query relative viability value for entry Nc1nc(Cl)nc2c1ncn2[C@H]1C[C@H](O)[C@@H](CO)O1 [Cladribine]
Result: 0.723

Request: // query relative viability value for entry N#Cc1ccc(C(c2ccc(C#N)cc2)n2cncn2)cc1 [Letrozole]
Result: 0.756

These data points were gathered from the supplement of paper PMC6279402.
